# test_system: T1, RAMP2 Scr V1
# T1 construct: it is not part of the secreted protein; Expressed in HEK cells
# T1 chain: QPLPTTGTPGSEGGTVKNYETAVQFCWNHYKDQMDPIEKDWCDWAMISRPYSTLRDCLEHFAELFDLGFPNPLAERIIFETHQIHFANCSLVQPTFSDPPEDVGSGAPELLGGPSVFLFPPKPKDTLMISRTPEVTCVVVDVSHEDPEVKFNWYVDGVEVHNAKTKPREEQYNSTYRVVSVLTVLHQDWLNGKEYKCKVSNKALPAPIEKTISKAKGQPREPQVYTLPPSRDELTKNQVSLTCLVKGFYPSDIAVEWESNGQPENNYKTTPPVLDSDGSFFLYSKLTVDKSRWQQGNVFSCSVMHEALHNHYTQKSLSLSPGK
# protocol_summary: ELISA, 24-well supernatants on coated antigen
measured_endpoint: binding result

binder | reading
RAMP2-rIgG-k1-1H7 (antibody, V domains shown, tested as recombinant rabbit IgG-kappa1; also called rlgG-k1-1H7; 1H7_#5) VH: QSLEESGGDLVKPEGSLTLTCTASGFSFSISYWICWVRQTPGKGLEWIGCIYGGSSGRPYYASWAKGRFTISKTSSTTVTLQMTSLTAADTAAYFCATTAYGGYGYGTWGPGTLVTVSS VL: AAVLTQTPSSTSGPVGGTVTIKCQASQNIGSFLSWYQQKPGQPPKLLIYSASSLATGVPSRFSGSGSGTQFTLTISGVQCDDAATYYCLGFYAYRSDDGTAFGGGTEVVVK | binds
RAMP2-rIgG-k1-2A6 (antibody, V domains shown, tested as recombinant rabbit IgG-kappa1; also called rlgG-k1-2A6; 2A6_#9) VH: QSVEESGGDLVKPGASLTLTCTASGFSFSSRYYMCWVRQAPGKGLEWIGCIFGGSSGNTHYASWAKGRFTIAKTSSTTVTLRMTSLTAADTATYSCVRSDAWGVNLWGPGTLVTVSS VL: DVVMTQTPASVEAAVGGTVTIKCQASQSISNLLAWYQQKPGQPPKRLIYGASNLESGVPSRFKGSGSGTQFTLTISDLECADAATYYCQCSYDGSSPNAFGGGTEVVVE | binds
RAMP2-rIgG-k1-1A10 (antibody, V domains shown, tested as recombinant rabbit IgG-kappa1; also called rlgG-k1-1A10; 1A10_#7) VH: QSLEESGGGLVQPEGSLTLTCTASGFSFSSSYYMCWVRQAPGKGLEWIGSIYTLSGSTAYASWAKGRFTISKTSSTTVTLQMTSLTAADTAMYFCARDSDGWGVSFNLWGPGTLVTVSS VL: AAVMTQTPSSLSAAVGGTVTIKCQASQSIRNQVSWYQQKPGQRPKLLIYRASTLESGVPSRFKGSGSGTDFTLTISDLECADAATYYCQCTYGSSSSNRYGNTFGGGTEVAVK | binds
